assay_remarks: Stat Signaling Pathway (AID 446);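 note: ME-180 cervical cancer cells given 40 pM IL-6 alongside compound; SIE-controlled beta-lactamase reporter measured as 460/530 nm FRET emission ratio; % is set by controls: 0 for no effect and ±100 for the full control effect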
condition_parameters: ME-180 (cervical carcinoma) SIE beta-lactamase reporter, IL-6 stimulated, 5 h; at 7.69 µM (top of the series) unless noted
Protocol: NCGC Assay Overview: The IL-6/STAT signaling pathway was assayed in ME-180 cervical carcinoma cells by a beta-lactamase reporter gene controlled by a STAT Inducible Element (SIE). This reporter is induced by IL-6 at 40 pM AC50 and inhibited by the pan JAK inhibitor, 2-(1,1-Dimethylethyl)-9-fluoro-3,6-dihydro-7H-benz[h]-imidaz[4,5-f]isoquinolin-7-one, at approximately 10 nM AC50. Plated cells were incubated overnight and on the following day, stimulated with 40 pM IL-6 for 5 hrs. […]
Inconclusive results are not listed.
Recorded activity, negative = inhibition values for a group of compounds are listed next.
metric: activity, negative = inhibition (%)

* Cc1noc(C)c1-c1cc(Nc2ccc(F)cc2)ncn1 | 3.16
* Cc1nc2cncnc2n(C2CC2)c1=O | -12.1
* CN1CCN(c2ncc3ncc(=O)n(CCC#N)c3n2)CC1 | -3.39
* COc1cccc(Cn2c(=O)cnc3cncnc32)c1 | -2.31
* O=C(O)C1CCN(c2ncnc3ccc(-c4ccccc4C(F)(F)F)cc23)CC1 | -9.2
* COc1ccc(NC(=O)N2CC[C@@]3(CCCN(C(=O)c4cnccn4)C3)C2)cc1 | 6.32
* O=C(c1cc(C(F)(F)F)cc(C(F)(F)F)c1)N1CCC[C@@]2(CCN(Cc3ccncc3)C2)C1 | -8.97
* COC(=O)N1CCC2(CCN(Cc3cc(C(F)(F)F)cc(C(F)(F)F)c3)CC2)CC1 | 0.155
* O=c1c(-c2ccc(F)cc2)nc2cnc(N3CCOCC3)nc2n1C[C@H]1CCCO1 | 29.2
* O=C(Nc1ccccc1)N1CC[C@@]2(CCCN(C(=O)c3ccco3)C2)C1 | -3.48
* CNc1ncncc1-c1ccccc1OC | 6.99
* NCCn1c(=O)c(CCc2ccccc2)nc2cncnc21 | -4.77
* CS(=O)(=O)N1CCC[C@@]2(CCN(C(=O)Nc3ccccc3)C2)C1 | -10.3
* CC(=O)NCCNc1ncnc2ccc(-c3cccc(NS(C)(=O)=O)c3)cc12 | 6.44
* CC(=O)N1CCC[C@@]2(CCN(c3ncccn3)C2)C1 | -10.4
* FC(F)(F)c1ccccc1-c1nc(NCCN2CCOCC2)c2ccccc2n1 | 3.19
* c1nc(NC2CCNCC2)c2cc(-c3ccoc3)ccc2n1 | -3
* CN(C)c1ncnc2ccc(-c3ccccc3C#N)cc12 | 18.9
* c1cncc(CNc2ncncc2-c2cccnc2)c1 | 12.2

* * *

assay_remarks: qHTS Assay for Lipid Storage Modulators (AID 1519)
condition_parameters: Drosophila S3 cells, BODIPY lipid droplet/cell ratio, laser cytometry; measured here: cell count channel max response; cells loaded with oleic acid
Results filed as inconclusive are left out.
metric: max response (%)

* Cn1c(=O)c(-c2cccs2)nc2cnc(OCc3ccccc3)nc21 | 20.6
* COCCNc1nc(-c2ccccc2CN(C)C)nc2ccccc12 | 2.38
* CC(=O)N1CCC2(CC1)CN(c1ccccc1)C2 | 16.4
* N#CCCn1c(=O)cnc2cnc(Oc3ccccc3)nc21 | 9.06

* * *

assay_remarks: HPAF-II Cancer Cell Toxicity qHTS against the NCATS CANVASS Library (AID 1347346); note: nearly all actives have a fitted effect of over 55% in size; note: potency is the fitted concentration of half-maximal effect
condition_parameters: HPAF-II viability, CellTiter-Glo ATP luminescence, 72 h; series mostly up to 38.3 µM
Inconclusive results are not listed. Active and inactive are the calls of the source. Calls follow the shape of the dose curve; as a rule, active = well fitted cell-killing curve with a large enough effect; inconclusive = small, poorly fitted or top-dose-only effect; inactive = flat fitted curve, though single readings scatter.
metric: Potency

• O=c1cc(-c2ccc(O)cc2)oc2cc(O)c([C@@H]3OC(CO)[C@H](O)[C@@H](O)[C@H]3O)c(O)c12 (stereo partly specified) = inactive
• C=C[C@]1(C)CC[C@@H]([C@H](C)C(=O)CC=C(C)C)O1 = inactive
• O=C1CC(c2ccc(O)cc2)Oc2cc(O)cc(O)c21 (stereo unspecified) = inactive
• CN1CC[C@@]2([C@@]34CCN(C)[C@@H]3Nc3ccccc34)c3ccccc3N[C@@H]12 = inactive
• O=C1CC(c2ccc(O)cc2)Oc2ccccc21 (stereo unspecified) = inactive
• CC(C)C[C@@H]1c2c(O)c(C=O)c(O)c(C=O)c2O[C@]2(C)C=C[C@@H](C(C)C)C[C@H]12 = inactive
• CO[C@@H](C[C@@H](C)[C@@H](O)/C=C/C=C/CNC(=O)C(C)(C)[C@H](O)\C(C)=C/C=C\C=C\Cc1cnco1)[C@]1(O)[C@@H](C)C(=O)N(C)[C@@]12COC2=O = inactive
• COc1cc2ccc(=O)oc2c(O)c1O[C@@H]1O[C@H](CO)[C@@H](O)[C@H](O)[C@H]1O = inactive
• O=C1c2c(O)cc(O)cc2OC(c2ccc(O)cc2)C1O (stereo unspecified) = inactive
• COC(=O)[C@@]12Oc3cccc(O)c3C(O)=C1C(=O)C[C@H](C)[C@H]2O = inactive
• COc1cc(/C=C/C(=O)OC[C@@H](Cc2ccc(O)c(OC)c2)[C@@H](COC(=O)/C=C/c2ccc(O)c(OC)c2)Cc2ccc(O)c(OC)c2)ccc1O = 8.41 µM (active)
• COC(=O)c1cc2cc3c(c(O)c2c(=O)o1)OC1(CC3)CC2=C(O1)C(=O)c1c(O)c(OC)cc(OC)c1C2=O (stereo unspecified) = 18.8 µM (active)
• C=CC(C)(C)C(=O)[C@@H](C)[C@@H]1CC[C@@](C)(C=C)O1 = inactive
• COC(=O)C1=C[C@]23C[C@@H](C)CC[C@@H]2[C@@]2(C)CC[C@@H](C(C)C)[C@@](O)(O3)[C@@H]12 = 18.8 µM (active)
• CC1(C)CC[C@]2(CO)CC[C@]3(C)C(=CCC4[C@@]5(C)CC[C@H](O)C(C)(C)C5CC[C@]43C)C2C1 (stereo partly specified) = inactive
• COc1cc(O)c(C(=O)[C@@H]2[C@H](CC=C(C)C)C(C)=CC[C@H]2c2ccccc2)c(O)c1 = 13.3 µM (active)

* * *

assay_remarks: SDT Cancer Cell Toxicity qHTS against the NCATS CANVASS Library (AID 1347365); note: nearly all actives have a fitted effect of over 60% in size
condition_parameters: SDT dog glioma viability, ATP luminescence, 72 h; series mostly up to 46.1 µM
Records with an inconclusive call do not appear. Active and inactive are the calls of the source. Calls come from the whole dose curve; as a rule, active = well fitted cell-killing curve with a large enough effect; inconclusive = small, poorly fitted or top-dose-only effect; inactive = flat fitted curve, though single readings scatter.
Labels: active, inactive

- COc1ccc([C@@H]2c3cc4c(cc3C(=O)C(C)C2C)OCO4)cc1OC (some centres not stated): inactive
- C=C(C)C(=O)O[C@H]1C[C@@]2(C)OC(=CC2=O)/C(C)=C\[C@H]2OC(=O)C(=C)[C@H]12: active
- C/C=C(/C)c1c(Cl)c(OC)c(C)c2c1Oc1c(Cl)c(O)c(Cl)c(C)c1C(=O)O2: inactive
- C/C=C(/C)c1cc(O)c(C)c2c1Oc1cc(O)cc(C)c1C(=O)O2: inactive
- CN1CC[C@@]23c4ccccc4N[C@@H]1[C@@]21CCN(C)[C@@H]3Nc2ccccc21: inactive
- CC1=C(C)C(=O)OC(C(C)C2(O)CCC3C4C5OC5C5(O)CC=CC(=O)C5(C)C4CCC32C)C1 (configuration not stated): active
- CC1=C2CC[C@]3(C)[C@H](CC=C4[C@@H]5CC(C)(C)CC[C@@H]5C(=O)[C@H](O)[C@]43C)[C@@]2(C)C=C(O)C1=O: inactive

* * *

study_system: Cytochrome P450 1A2 (Homo sapiens)
assay_remarks: p450-cyp1a2 (AID 410); note: potency is the fitted concentration of half-maximal effect
condition_parameters: recombinant CYP1A2, luciferin-ME demethylation, luminescence; series mostly up to 57 µM
Method: The P450 gene superfamily is involved in metabolism and the clearance of xenobiotics. This assay used human CYP1A2 to measure the demethylation of luciferin 6' methyl ether (Luciferin-ME; Promega-Glo) to luciferin. The luciferin is then measured by luminescence after the addition of a luciferase detection regeant. Luciferin-ME concentration in the assay was equal to its Km for CYP1A2. NCGC Assay Protocol Summary: […]
Results filed as inconclusive are left out. Active and inactive are the calls of the source. The call rests on the fitted dose curve.
metric: Potency

* CC(=O)N1CCC[C@@]2(CCN(c3ncccn3)C2)C1 | inactive
* COc1ccc(CNc2ncncc2-c2cccnc2)c(OC)c1 | 3.16 µM (active)
* CC(C)NC(=O)N1CCC2(CC1)CCN(C(=O)c1ccco1)CC2 | inactive
* N#Cc1cccc(-c2nc3cnc(N4CCOCC4)nc3n(C3CC3)c2=O)c1 | 2.51 µM (active)
* O=C(c1ccco1)N1CCC[C@@]2(CCN(c3ccccc3)C2)C1 | 7.94 µM (active)
* COCCNc1ncncc1-c1c(C)noc1C | inactive
* COc1ccccc1CN1CC[C@@]2(CCCN(C(=O)c3cccn3C)C2)C1 | inactive
* O=C(c1csnn1)N1CCC[C@@]2(CCN(Cc3nccs3)C2)C1 | inactive
* NC(=NCCC[C@H](N)C(=O)O)NO | inactive
* CNc1ncnc2ccc(-c3ccccc3CN(C)C)cc12 | 3.16 µM (active)
* Cc1ccccc1-c1cc(N(C)C)ncn1 | 2 µM (active)
* FC(F)(F)c1cc(CN2CC3(CCNCC3)C2)cc(C(F)(F)F)c1 | inactive
* O=C(c1csnn1)N1CCC2(CC1)CN(c1ccccn1)C2 | inactive
* Cc1noc(C)c1-c1cc(N(C)Cc2ccco2)ncn1 | 3.16 µM (active)
* CCNc1ncc2nc(-c3ccc(OC)cc3)c(=O)n(CCOC)c2n1 | 1.26 µM (active)
